Numbers sourced from PubChem BioAssay (NCI).

# System: SN12C renal
# PROCEDURE_DETAILS: NCI tumour cell line growth inhibition, 48 h; in the data active = GI50 below about 0.43 µM; inactive = the rest
Select the matching outcome among active, inactive

Example entries begin here.
Cn1cc(C2=C(c3cn(CCCCCN)c4ccccc34)C(=O)NC2=O)c2ccccc21 = inactive
CCc1ccccc1NC(=O)c1sc2nc3c(cc2c1N)C(=O)CCC3 = inactive
CCCCC1(CN2CCOCC2)S/C(=N/c2nc(CC(=O)OCC)cs2)NC1=O (stereo not given) = inactive
Cc1cc2c(cc1Cl)SC(=Nc1ccc(Cl)cc1)N(S(=O)(=O)c1ccccc1)S2(=O)=O = inactive
COc1ccc(-c2c[nH]c(=S)n2-c2ccc(OC)cc2)cc1 = inactive
COc1ccc(C(=O)COc2cccc(/C=C3\Oc4ccc5ccccc5c4C3=O)c2)cc1 = inactive

Prompt: # fetch the recorded call for C1C[OH+]CCNCC[OH+]CC[OH+]CCN1.[Cl-].[Pt+4] here
Completion: inactive

Prompt: Ok, now CCOC(=O)CNC(=O)c1ccccc1Nc1ccnc(C(F)(F)F)c1
Completion: inactive

Prompt: Same thing, different molecule: COc1ccc(-c2oc3cc(O)c(OC)c(O)c3c(=O)c2OC)cc1O
Completion: active

Prompt: Would you mind doing Cc1ccc(S(=O)(=O)NCCNc2nccc(-c3c(-c4ccc(F)cc4)nc4sccn34)n2)cc1 as well?
Completion: inactive

====

# Tested on: 786-0 renal
# PROCEDURE_DETAILS: NCI tumour cell line growth inhibition, 48 h
Assign GI50 to each entry below.

Quick one: give me GI50 for each item below, same order please.
1. Cc1cn2c(/C=C3\C(=O)N(C)c4ccc(O)cc43)c(C)nc2s1
2. O=C(Nc1ccc(-n2cc(-c3ccncc3)c(-c3ccc(Cl)c(O)c3)n2)cc1)Nc1ccc(Cl)c(C(F)(F)F)c1
3. CCc1ccccc1NC(=O)c1sc2nc3c(cc2c1N)C(=O)CCC3

Completion:
1. 6.41 µM
2. 1.22 µM
3. 0.722 µM

Field: GI50. Fill in for each record below.
1. Cc1ccc(S(=O)(=O)NCCNc2nccc(-c3c(-c4ccc(F)cc4)nc4sccn34)n2)cc1
2. CC(C)S(=O)(=O)c1ccccc1Nc1nc(Nc2cccc(NC(=O)CN)c2)ncc1Cl

Completion:
5.65 µM
0.235 µM

====

Can you tell me TGI for the items I'm about to list?
# Test system: MOLT-4 leukemia
# PROCEDURE_DETAILS: NCI tumour cell line growth inhibition, 48 h

CC(=O)C1=C(C)NC2C=CC=CN12 (stereo not given) = > 100 µM
O=C(Nc1ccc(CO)cc1)c1coc2ccccc2c1=O = > 100 µM

Count: 3. Required value per item: TGI.
1. Cc1cc(S(=O)(=O)N/N=C(\Sc2cc(Cl)c(C)cc2S(N)(=O)=O)c2ccc(Cl)cc2)c(Cl)cc1Cl
2. CC(=O)O[C@H]1CC[C@@]2(C)C(=CC[C@H]3[C@@H]4C[C@H](N5CCCC5)[C@H](OC(C)=O)[C@@]4(C)CC[C@@H]32)C1
3. Cc1ccc2c(c1)[nH]c1cc(C(F)(F)F)ccc1[p+]2=O (stereo not given)

Completion:
1. > 100 µM
2. > 100 µM
3. 52 µM

====

# Test system: SNB-78 CNS
# PROCEDURE_DETAILS: NCI tumour cell line growth inhibition, 48 h
EXPERIMENTAL_ENDPOINT: TGI

COc1cc(C)c2c(c1C)OC(=O)c1c(C)c(Cl)c(O)c(C=O)c1O2 = 50.6 µM
CC(C)(C=O)CC(C#N)/C(=N\NC(N)=O)C(=O)Nc1ccccc1C(N)=O (configuration not stated) = > 100 µM
COC(=O)N/N=C(\C)C(CN1CCCCC1)C(C1=C(O)c2ccccc2OC1)c1ccccc1 (configuration not stated) = > 100 µM

Parameter requested: TGI. Apply to each item below.
1. COc1ccc(C2c3cc(OC)c(OC)cc3C(Cc3ccc([N+](=O)[O-])cc3)C2c2ccc([N+](=O)[O-])cc2)cc1OC (configuration not stated)
2. C=C1C[C@]23CCC4C(C)(C)C(=O)CC[C@]4(C)C2C[C@H]1C(O)C3=O (some centres not stated)
3. CC(=O)Nc1cc2c(s1)CCC1CC(=O)NN=C21 (configuration not stated)
4. O=C1[C@H]2ON(c3ccccc3)C(c3ccc(Cl)cc3)[C@H]2C(=O)N1c1ccc(Cc2ccc(N3C(=O)[C@@H]4ON(c5ccccc5)C(c5ccc(Cl)cc5)[C@@H]4C3=O)cc2)cc1 (some centres not stated)
5. COc1ccc2nc3ccccc3c(NCCCCCCN(CCCl)CCCl)c2c1
6. NC1=NS(=O)(=O)Nc2nc(-c3ccc(Cl)cc3)c(-c3ccc(Cl)cc3)nc21

Completion:
1. > 100 µM
2. > 75 µM
3. > 100 µM
4. > 100 µM
5. 2.13 µM
6. > 100 µM

I have 2 compounds here; please give me TGI for each one.
1. COC(=O)CCC(=O)CC1CC(=O)C2CCCN12 (configuration not stated)
2. CN(C)C(=S)/N=c1\ss/c(=N\C(=S)N(C)C)n1-c1ccc(Cl)c(Cl)c1

Completion:
["> 100 µM", "> 100 µM"]

Parameter requested: TGI. Apply to each item below.
1. COc1cccc(-n2c3nc(=O)n(C)c(=O)c-3nc3ccccc32)c1
2. CC12CCCCC1(C)C2Sc1ccccc1 (configuration not stated)
3. Nc1ccn(C2(CO)C=C(CO)C(O)C2O)c(=O)n1 (configuration not stated)
4. COc1cccc(C2CC(C)=Nc3c(ccc4c3C(=O)c3ccccc3C4=O)N2)c1O (configuration not stated)
5. O=C(NC(Cc1ccc(I)cc1)C(=O)O)c1ccc(Br)cc1 (configuration not stated)
6. Cc1cc(NS(=O)(=O)c2ccc(Nc3c4ccccc4nc4c(C(=O)NCCN(C)C)cccc34)cc2)no1

Completion:
["> 100 µM", "> 80.1 µM", "> 25.8 µM", "> 100 µM", "> 100 µM", "80.4 µM"]
